All values here come from patent US9738656B2.

Please go through the items and note down their Time of Fall.
# Tested on: male ddY mice
# assay comment: Rotarod performance test-2
# Type: in vivo
# run conditions: Table 4; mice, oral at the ED50 dose of the 6 Hz model, 25 minutes after administration
Write down the numeric answer in s and omit the unit.

# input Report Time of Fall on male ddY mice for this entry: Cc1ncc(-n2c3c(cc(-c4cccc(F)c4C#N)c2=O)-c2ncccc2OC3)cn1
# output 118.7

# input Give Time of Fall; test system male ddY mice; compound COc1ncc(-n2c3c(cc(-c4cccc(F)c4C#N)c2=O)-c2ncccc2OC3)cn1
# output 108.7

# input Report Time of Fall under test system male ddY mice for N#Cc1c(F)ccc(F)c1-c1cc2c(n(-c3cccnc3)c1=O)COc1cccnc1-2 .
# output 121.7

# input Retrieve Time of Fall on male ddY mice; query N#Cc1c(F)cccc1-c1cc2c(n(-c3cccnc3)c1=O)COc1cc(F)cnc1-2
# output 139.2

---

# System: male ddY mice
# assay comment: Rotarod performance test-2
# Assay type: in vivo
# run conditions: Table 3; mice, oral at the ED50 dose of the 6 Hz model, 25 minutes after administration
experimental readout: Time of Fall (s)
Give a bare numeral; the unit s is implied.

# input Report Time of Fall, nothing else, for this molecule: N#Cc1ccccc1-n1nc2c(c(-c3cccnc3)c1=O)COc1ccccc1-2 [Control Compound, reference compound]
# output 12.2

# input Item N#Cc1ncccc1-c1cc2c(n(-c3ccsc3)c1=O)COc1cccnc1-2 [Example 7] : provide Time of Fall
# output 71.7

# input Given Cc1ccc(-n2c3c(cc(-c4cccc(F)c4C#N)c2=O)-c2ncccc2OC3)cn1 [Example 3] , respond with its Time of Fall.
# output 124.7

# input Look up and report measured Time of Fall for this entry: N#Cc1ccccc1-c1cc2c(n(-c3ccc(F)cc3)c1=O)COc1cccnc1-2 [Example 10]
# output 84.2

# input Kindly indicate its recorded Time of Fall. Item: N#Cc1ncccc1-c1cc2c(n(-c3ccc(F)cc3)c1=O)COc1cccnc1-2 [Example 11]
# output 114.7

# input Give reported Time of Fall value for N#Cc1ncccc1-c1cc2c(n(-c3ccccc3)c1=O)COc1cc(F)cnc1-2 [Example 13]
# output 84.8

---

Please respond with reported ED50 for every item in the list.
# Test system: male ddY mice
# assay comment: Murine 6 Hz convulsion models (6 Hz, 44 mA corneal stimulation)
# Assay type: in vivo
# run conditions: Mus musculus, po, 25 min
Enter your answer as a number in mg/kg; do not include the unit.

# input Give me measured ED50, please, for this compound: N#Cc1ncccc1-c1cc2c(n(-c3ccsc3)c1=O)COc1cccnc1-2
# output 0.97

# input Answer with the recorded ED50 of N#Cc1c(F)cccc1-c1cc2c(n(-c3cncnc3)c1=O)COc1cccnc1-2 only.
# output 2

# input # return recorded ED50 for input N#Cc1c(F)cccc1-c1cc2c(n(-c3cncc(Cl)c3)c1=O)COc1cccnc1-2
# output 2.47

# input Give ED50 for O=c1c(-c2cccc(F)c2Cl)cc2c(n1-c1cncc(F)c1)COc1cccnc1-2
# output 2

---

# Test system: male ddY mice
# assay comment: Rotarod performance test-1
# Format: in vivo
# run conditions: oral, 25 minutes after administration, dose at which time of fall is reduced to 50% of medium control
Give measured TD50 for each item. Keep answers brief.

# input Quote TD50 reported for O=c1c(-c2c(F)cccc2F)cc2c(n1-c1cccnc1)COc1cccnc1-2 please.
# output 5.16 mg/kg, p.o.

# input Give TD50 for the following compound: N#Cc1ncccc1-c1cc2c(n(-c3ccc(F)cc3)c1=O)COc1cccnc1-2
# output 5.05 mg/kg, p.o.

# input Kindly indicate its recorded TD50. Item: Cc1c(F)cccc1-c1cc2c(n(-c3cccnc3)c1=O)COc1cccnc1-2
# output 6.19 mg/kg, p.o.

# input Query TD50 for N#Cc1ncccc1-c1cc2c(n(-c3ccccc3F)c1=O)COc1cccnc1-2
# output 3.06 mg/kg, p.o.

# input // Input: N#Cc1c(F)cccc1-c1cc2c(n(-c3cncc(Cl)c3)c1=O)COc1cccnc1-2 . Output its TD50 only.
# output 4.74 mg/kg, p.o.

# input Using known records, supply TD50 for N#Cc1ccccc1-n1nc2c(c(-c3cccnc3)c1=O)COc1ccccc1-2 [Control Compound, reference compound]
# output 2.73 mg/kg, p.o.

# input Please look at this compound and report its TD50: N#Cc1c(F)ccc(F)c1-c1cc2c(n(-c3cccnc3)c1=O)COc1cccnc1-2
# output 3.25 mg/kg, p.o.

# input Provide TD50 value for the following compound: O=c1c(-c2ccccc2Cl)cc2c(n1-c1cccnc1)COc1cccnc1-2
# output 3.09 mg/kg, p.o.

# input State its TD50: Cc1ncc(-n2c3c(cc(-c4cccc(F)c4C#N)c2=O)-c2ncccc2OC3)cn1
# output 5.30 mg/kg, p.o.

# input Give me measured TD50, please, for this compound: N#Cc1ncccc1-c1cc2c(n(-c3ccccc3)c1=O)COc1cc(F)cnc1-2
# output 3.89 mg/kg, p.o.

# input # return recorded TD50 for input O=c1c(-c2ccccc2F)cc2c(n1-c1ccccc1)COc1cccnc1-2
# output 9.55 mg/kg, p.o.

# input Find the measured TD50 of N#Cc1nccnc1-c1cc2c(n(-c3ccsc3)c1=O)COc1cccnc1-2 and report it.
# output >8 mg/kg, p.o.

# input Fill in reported TD50 for this entry: N#Cc1c(F)cccc1-c1cc2c(n(-c3cncc(F)c3)c1=O)COc1cccnc1-2
# output 2.67 mg/kg, p.o.

# input Supply recorded TD50 for COc1cncc(-n2c3c(cc(-c4cccc(F)c4C#N)c2=O)-c2ncccc2OC3)c1 here.
# output 4.50 mg/kg, p.o.

# input Input COc1ncc(-n2c3c(cc(-c4cccc(F)c4C#N)c2=O)-c2ncccc2OC3)cn1 , output reported TD50.
# output 6.53 mg/kg, p.o.

# input Query TD50 for N#Cc1c(F)cccc1-c1cc2c(n(-c3cncnc3)c1=O)COc1cccnc1-2
# output 4.03 mg/kg, p.o.

# input State its TD50 for this compound: N#Cc1ccccc1-c1cc2c(n(-c3ccc(F)cc3)c1=O)COc1cccnc1-2
# output 3.37 mg/kg, p.o.

# input Return TD50 (reported value) for this compound: Cc1ccc(-n2c3c(cc(-c4cccc(F)c4Cl)c2=O)-c2ncccc2OC3)cn1
# output 3.90 mg/kg, p.o.

# input Tell me TD50 reported for O=c1c(-c2c(F)c(F)cc(F)c2F)cc2c(n1-c1cccnc1)COc1cccnc1-2
# output 4.44 mg/kg, p.o.

# input State, in one line, measured TD50 of O=c1c(-c2cccc(F)c2Cl)cc2c(n1-c1cncc(F)c1)COc1cccnc1-2
# output 4.27 mg/kg, p.o.

# input Return TD50 for the following compound: N#Cc1ncccc1-c1cc2c(n(-c3ccsc3)c1=O)COc1cccnc1-2
# output 1.70 mg/kg, p.o.

# input For the compound Cc1ccc(-n2c3c(cc(-c4cccc(F)c4C#N)c2=O)-c2ncccc2OC3)cn1 , report TD50.
# output 2.47 mg/kg, p.o.

# input For the compound N#Cc1c(F)cccc1-c1cc2c(n(-c3cccnc3)c1=O)COc1cccc(F)c1-2 , give its measured TD50 value.
# output 1.73 mg/kg, p.o.

# input Return value of TD50 for input N#Cc1c(F)cccc1-c1cc2c(n(-c3cccnc3)c1=O)COc1cc(F)cnc1-2 , no commentary.
# output 4.76 mg/kg, p.o.

---

# Tested on: male ddY mice
# assay comment: Murine 6 Hz convulsion models (6 Hz, 44 mA corneal stimulation)
# Format: in vivo
# run conditions: Mus musculus, 25 min; mice, 6 Hz 44 mA stimulation-induced seizure, oral, after rotarod test-1 (25 minutes after administration); read-out: ED50
Each record is given condition met if its reported ED50 is strictly below 3 mg/kg. Records at or above 3 mg/kg are given condition not met.

# input Please state whether ED50 is below 3 mg/kg for COc1ncc(-n2c3c(cc(-c4cccc(F)c4C#N)c2=O)-c2ncccc2OC3)cn1 [Example 5]
# output condition not met

# input For this compound, is ED50 lower than 3 mg/kg? Cc1c(F)cccc1-c1cc2c(n(-c3cccnc3)c1=O)COc1cccnc1-2 [Example 22]
# output condition not met

# input Input N#Cc1ncccc1-c1cc2c(n(-c3ccc(F)cc3)c1=O)COc1cccnc1-2 [Example 11] ; condition: ED50 strictly below 3 mg/kg. Does it hold?
# output condition met

# input In the record for N#Cc1nccnc1-c1cc2c(n(-c3ccsc3)c1=O)COc1cccnc1-2 [Example 8] , is ED50 less than 3 mg/kg?
# output condition not met

# input Does the reported ED50 of Cc1ncc(-n2c3c(cc(-c4cccc(F)c4C#N)c2=O)-c2ncccc2OC3)cn1 [Example 21] stay below 3 mg/kg?
# output condition met

# input ED50 under 3 mg/kg? Item: O=c1c(-c2c(F)cccc2F)cc2c(n1-c1cccnc1)COc1cccnc1-2 [Referential Example 1]
# output condition met

# input Find out if reported ED50 for O=c1c(-c2ccccc2F)cc2c(n1-c1ccccc1)COc1cccnc1-2 [Example 9] is less than 3 mg/kg
# output condition not met
